Test system: Escherichia coli TOP10;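 further: peptides expressed intracellularly from a pBAD plasmid library in pooled LB shake-flask culture, induced with 0.3% L-arabinose, DNA abundance read by NGS, three biological replicates, DESeq2 with apeglm shrinkage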
Assay: shrunken log2 fold change of peptide-encoding DNA abundance (4.5 h post-induction vs induction); higher = less antimicrobial activity (less host growth inhibition)
Conditions: time post-induction: 4.5 h; library: site-saturation at positions 5, 18, 19, 20
REPORTED_PROPERTY: shrunken log2 fold change
No unit in the answer, only the number.

The value of shrunken log2 fold change measured for the sequence `RRIRWRPPRLPRPRPRPGWPPRP` turned out to be 0.644

The value of shrunken log2 fold change measured for the sequence `RRIRKRPPRLPRPRPRPTMHPRP` turned out to be 0.455

The value of shrunken log2 fold change measured for the sequence `RRIRIRPPRLPRPRPRPGICPRP` turned out to be -0.0709

The value of shrunken log2 fold change measured for the sequence `RRIRIRPPRLPRPRPRPGVNPRP` turned out to be -0.319

The value of shrunken log2 fold change measured for the sequence `RRIRVRPPRLPRPRPRPNTCPRP` turned out to be -0.101

The value of shrunken log2 fold change measured for the sequence `RRIRPRPPRLPRPRPRPNQYPRP` turned out to be -0.509

The value of shrunken log2 fold change measured for the sequence `RRIRIRPPRLPRPRPRPDMPPRP` turned out to be -0.109

The value of shrunken log2 fold change measured for the sequence `RRIRYRPPRLPRPRPRPMCMPRP` turned out to be -0.214
